System: MEIS1 mRNA
Assay: MEIS1 mRNA expression assay (Quantigene Singleplex) in MOLM14 cells
Type: cell-based
Conditions: Homo sapiens, MOLM-14, 48 hours
readout_type: IC50 (nM)
Numeric only. Scale: nM

Return reported IC50; argument: CC(=O)N1CCC(CN2CC[C@@H](Cc3cn(-c4ccc(F)cc4C(=O)N(C)C(C)C)c4cncc(C)c34)C2)CC1 [Compound 51a]
11

====

Biological target: Menin/MLL (Homo sapiens, UniProt O00255, T541A)
Construct: Menin (a.a 1-610-6×his tag, 2.3 mg/mL in 20 mM Hepes)
Sequence (O00255 with tags, fused parts or gaps T541A): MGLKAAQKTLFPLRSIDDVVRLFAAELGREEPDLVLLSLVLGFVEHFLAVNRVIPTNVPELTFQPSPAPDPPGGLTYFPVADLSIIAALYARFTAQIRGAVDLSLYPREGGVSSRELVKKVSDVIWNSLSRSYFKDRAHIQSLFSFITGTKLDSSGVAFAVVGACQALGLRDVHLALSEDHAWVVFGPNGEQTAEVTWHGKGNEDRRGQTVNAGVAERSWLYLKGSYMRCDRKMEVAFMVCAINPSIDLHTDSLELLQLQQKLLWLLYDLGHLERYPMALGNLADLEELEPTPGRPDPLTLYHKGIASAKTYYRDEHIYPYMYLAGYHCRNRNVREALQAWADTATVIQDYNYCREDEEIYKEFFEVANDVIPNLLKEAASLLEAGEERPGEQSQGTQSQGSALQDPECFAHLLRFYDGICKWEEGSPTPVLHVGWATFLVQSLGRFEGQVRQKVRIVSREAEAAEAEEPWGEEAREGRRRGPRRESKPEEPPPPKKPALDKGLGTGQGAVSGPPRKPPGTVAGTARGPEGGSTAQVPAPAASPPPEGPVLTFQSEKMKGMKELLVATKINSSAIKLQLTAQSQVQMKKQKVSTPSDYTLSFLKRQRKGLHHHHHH
Assay: Menin/MLL homogenous time-resolved fluorescence (HTRF) assay
Settings: 30 min incubation of test compound with terbium chelate-labeled menin
Would you kindly list pIC50 for each of these compounds?
# pIC50 = -log10(concentration in molar units)

What does the record list as pIC50 for Cc1cncc2c1c(CC1CN(CC3CCNC(=O)C3)C1)cn2-c1ccc(F)cc1C(=O)N(C)C(C)C (centres unmarked) ?
9.72

Next entry: CC(=O)N1CC2CC(N3CC(Cc4cn(-c5ccc(F)cc5C(=O)N(C)C(C)C)c5cncc(C)c45)C3)CC2C1 (centres unmarked) [Compound 294a]
9.63
